These entries and their values trace back to PubChem BioAssay (NCATS).

Test: Drug repurposing screens with cells derived from glioblastoma tumor samples (AID 1345199); note: % is set by controls: 0 for no effect and ±100 for the full control effect
Settings: GBM patient neurospheres viability, ATP luminescence, 48 h; at 21.2 µM (top of the series); tumour line D
Inconclusive results are not listed.
readout: activity, negative = cell killing (%)
Numeric answer only, unit % assumed.

molecule | activity, negative = cell killing, %
CC[C@H]1[C@@H]2C[C@H]3[C@@H]4N(C)c5ccccc5[C@]45C[C@@H](C2[C@H]5O)N3[C@@H]1O (some centres undefined) | 6.31
CC(=O)OCC(=O)[C@H]1CC[C@H]2[C@@H]3CC[C@H]4C[C@H](O)CC[C@]4(C)[C@H]3C(=O)C[C@]12C | 0.678
O=c1ccc2cc(O[C@@H]3O[C@H](CO)[C@@H](O)[C@H](O)[C@H]3O)c(O)cc2o1 | -17.9
CN(C)[C@@H]1C(=O)C(C(N)=O)=C(O)[C@@]2(O)C(=O)C3=C(O)c4c(O)ccc(Cl)c4[C@@](C)(O)[C@H]3C[C@@H]12 | 7.37

# evaluate next
Task: Consider the molecule shown here: CCNCC(O)c1cccc(O)c1 (centres undefined) What is its recorded activity, negative = cell killing?
Result: -23
